B1: CPEB3 Ribozyme (parent)
chain: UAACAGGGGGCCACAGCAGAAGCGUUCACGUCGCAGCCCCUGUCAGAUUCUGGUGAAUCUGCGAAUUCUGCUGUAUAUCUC

Variants of: B1
MEASUREMENT_PROTOCOL: self-cleavage, relative activity (ratio to wild type); higher = more cleavage; in vitro, sequencing
Each entry below carries its reported self-cleavage.
Respond numerically, and do not add a unit to the figure.

| MUT | self-cleavage |
| --- | --- |
| C34G U76G | 0.32 |
| A13C U72A | 0.24 |
| A47U C50A | 0.23 |
| C62U U76A | 0.25 |
| A18G U25C | 0.26 |

Please examine the following record next.
In: Name the recorded self-cleavage of the variant listed here: A45U U67A
Out: 0.24
